# self-cleavage listing for each entry below
B1: CPEB3 Ribozyme (parent)
chain: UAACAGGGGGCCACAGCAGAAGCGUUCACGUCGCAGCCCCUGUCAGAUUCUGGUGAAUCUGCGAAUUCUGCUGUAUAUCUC

- Variants of: B1
- protocol: self-cleavage, relative activity (ratio to wild type); higher = more cleavage; in vitro, sequencing
Lab note: jot the number down without any unit.

Worked set:
monomer_sequence="UAACUGGGGGCCACAGCAGGAGCGUUCACGUCGCAGCCCCUGUCAGAUUCUGGUGAAUCUGCGAAUUCUGCUGUAUAUCUC [A5U A20G]" reported_result=0.91
monomer_sequence="AAACAGGGGGCCACAGCAGAAGCGUUCACGUCGCAGCCCCUGUCAGAUUCUGGUGAAUCUGCGAAUUAUGCUGUAUAUCUC [U1A C68A]" reported_result=0.41
monomer_sequence="UAACAGGGGGCCACAGCAGAAGCGUUCACCUCGCAGCCCCUGUCAGAUUCUGGUGAAUCUGCGAAUUCUGCUGUAUACCUC [G30C U78C]" reported_result=0.38
monomer_sequence="UAGCAGGGGGCCACAUCAGAAGCGUUCACGUCGCAGCCCCUGUCAGAUUCUGGUGAAUCUGCGAAUUCUGCUGUAUAUCUC [A3G G16U]" reported_result=0.62

Ask | // lookup self-cleavage for UAACAGGGGGCCACAGCAGAAGCGUUCACGACGCAGCCCCUGUCAGAUUCUGGUGAAUCUGCGAAUUCUGCUGAAUAUCUC [U31A U74A]
Reply | 0.74

Ask | Quick check: self-cleavage of UAACAGGGGGCCACAGCAGAAGCGUUCACGUCGCAGCCCCAGUCAGAUUCUGGUGAAUCUGCGAAUUCGGCUGUAUAUCUC [U41A U69G] ?
Reply | 0.33

Ask | Item UAACAGGGGGCCACAACAGAAGCGUUCACGUCGCAGCCACUGUCAGAUUCUGGUGAAUCUGCGAAUUCUGCUGUAUAUCUC [G16A C39A] has what recorded self-cleavage?
Reply | 0.33

Ask | Looking for the measured self-cleavage of UAACAGGGGGCCACAGCAGAAGCGUUCACGUCGCAGCCCCUGUCAGAGUCUGGUGAAUCUGCGAAUUCUGCCGUAUAUCUC [U48G U72C] , can you help?
Reply | 0.44

Ask | Need self-cleavage, item UAACAGGGGGCCACAGCAGAAGCGUUCACGUCGCAGCCCCUGUCAGAUUCUGGUGAAUCUGUGAAUUCUGCUGUAUCUCUC [C62U A77C]
Reply | 0.19

Ask | Need self-cleavage, item UAACAGGGGGCCACAGCAGAAGCGUUCACGUCGCAGCCCCUGUCAGAUUCUGGUGAAUCUGCGAAUUCUGCUAUAUAUCAC [G73A U80A]
Reply | 1.25

Ask | Entry UAACAGGGGGCCACAGCAGAAGCGUUCACGUCGCAGCGCCUGUCAGAUUCUGGUGAAUCUGCGAAUUCAGCUGUAUAUCUC [C38G U69A] : reported self-cleavage = ?
Reply | 0.19

Ask | Need self-cleavage of UAACAGGGGGCCACGGCAGAAGCGUUCACGUCGCAGCCCCUGACAGAUUCUGGUGAAUCUGCGAAUUCUGCUGUAUAUCUC [A15G U43A] , thanks.
Reply | 1.05

Ask | What self-cleavage value was documented for this variant, UAACAGGGGGCCACAGCAGAAGCGUUCACGUCGCAGCCCCUGUCAGAUUCUGGUGAAUCAGCGAAUUCUGCUGUAUAUCUU [U60A C81U] ?
Reply | 0.76

Ask | Quick one: self-cleavage for UAACAGGGGGCGACAGCAGAAGCGUUCACGUCGCAGCCCCUGUCAGAUUCUGGUGAAUCUGCGAAUUCUGCUGUAUACCUC [C12G U78C] ?
Reply | 0.71

Ask | Which self-cleavage value belongs to UAACAGGGGGACACAGCAGAAGCGUUCACGUCGCAGCCCCUGUCAGAUUCUGGUGAAUCUGCGAAUUCUGCUGUGUAUCUC [C11A A75G] ?
Reply | 0.36

Ask | I have this variant here, UUACAGGGGGCCACAGCAGAAGCGUUCACGUCGCAGCCCCUGUCAGAUUCUGGUGAAUCUGCGAAUUCUGCUGUACAUCUC [A2U U76C] , and I need its recorded self-cleavage.
Reply | 1.15

Ask | Item UAACAGGGGGCCACAGCAGAAGCGUUCACGUUGCAGCCCCUGUCAGAUUCUGAUGAAUCUGCGAAUUCUGCUGUAUAUCUC [C32U G53A] has what recorded self-cleavage?
Reply | 0.27
